experimental protocol: DSSTox (CPDBAS) Carcinogenic Potency Database Summary MultiCellCall Results
condition set: animal carcinogenicity bioassays, multi-cell call summary
Active and inactive are the calls of the source.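 Rule for the calls: active = tumour findings in long-term animal cancer tests in more than one sex, species or organ; inactive = no tumour finding and more than one negative test.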
Result category, one only: 1 (active), -1 (inactive)

Examples with answers:
molecule: CC(=O)Nc1ccc2c(c1)Cc1ccccc1-2
label: 1
//
molecule: O=C1C(Cl)=C(Cl)C(=O)C(Cl)=C1Cl
label: -1
//
molecule: CC(=O)Nc1ccc(CC(=O)O)cc1
label: -1
//
molecule: CCCC[C@H](C)[C@@H](OC(=O)C[C@H](CC(=O)O)C(=O)O)[C@@H](C[C@H](C)C[C@@H](O)CCCC[C@@H](O)C[C@H](O)[C@H](C)N)OC(=O)C[C@H](CC(=O)O)C(=O)O
label: 1
//
molecule: Cc1cnc(NC(=O)C2=C(O)c3ccccc3S(=O)(=O)N2C)s1
label: -1

In the following, a different molecule is considered.
## Task I would be grateful if you could indicate the recorded call for CN(C)NC(=O)CCC(=O)O .
## Result 1

====

experimental protocol: DSSTox (CPDBAS) Carcinogenic Potency Database Summary MultiCellCall Results
condition set: animal carcinogenicity bioassays, multi-cell call summary
Calls of active or inactive are those of the source.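 Rule for the calls: active = tumour findings in long-term animal cancer tests in more than one sex, species or organ; inactive = no tumour finding and more than one negative test.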
Result category, one only: yes (1) for active, no (0) for inactive

compound: c1ccc2sc(SSc3nc4ccccc4s3)nc2c1
label: no (0)

compound: Cc1ccc(N)cc1N
label: yes (1)

compound: Nc1c(Cl)c(Cl)nc(C(=O)O)c1Cl
label: no (0)

compound: C=CC=C
label: yes (1)

compound: Nc1ccc2oc3ccccc3c2c1
label: yes (1)

compound: Nc1ccc(-c2ccc(N)c(Cl)c2)cc1Cl
label: yes (1)

## Task I would be grateful if you could indicate the recorded call for CCCNC(=O)NS(=O)(=O)c1ccc(Cl)cc1 .
## Result no (0)

## Task I would be grateful if you could indicate the recorded call for Nc1cc(Cl)c(-c2cc(Cl)c(N)cc2Cl)cc1Cl .
## Result no (0)

## Task I would be grateful if you could indicate the recorded call for CN(Cc1cnc2nc(N)nc(N)c2n1)c1ccc(C(=O)N[C@@H](CCC(=O)O)C(=O)O)cc1 .
## Result no (0)

## Task I would be grateful if you could indicate the recorded call for CNC(=O)O/N=C/C(C)(C)SC .
## Result no (0)

## Task I would be grateful if you could indicate the recorded call for CC(C)(Oc1ccc(C2CC2(Cl)Cl)cc1)C(=O)O (configuration not stated) .
## Result yes (1)

====

experimental protocol: DSSTox (CPDBAS) Carcinogenic Potency Database Summary MultiCellCall Results
condition set: animal carcinogenicity bioassays, multi-cell call summary
The source made the active and inactive calls.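 The calls were made as follows: active = tumour findings in long-term animal cancer tests in more than one sex, species or organ; inactive = no tumour finding and more than one negative test.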
Result category, one only: active, inactive

Examples with answers:
molecule: CSCCC(N)C(=O)O (configuration not stated)
label: inactive
--
molecule: CN(C)CCC(c1ccc(Cl)cc1)c1ccccn1 (configuration not stated)
label: inactive
--
molecule: COc1ccccc1N
label: active
--
molecule: CCCCC(CC)COC(=O)c1ccccc1C(=O)OCC(CC)CCCC (configuration not stated)
label: active
--
molecule: CCOCCc1c(-c2ccccc2)nc(N)n2ncnc12
label: active
--
molecule: CCC(=O)C(CC(C)N(C)C)(c1ccccc1)c1ccccc1 (configuration not stated)
label: inactive
--
molecule: CC/C=C(/CC)[N+](=O)[O-]
label: active
--
molecule: CN1[C@@H]2CC[C@H]1CC(OC(=O)C(CO)c1ccccc1)C2 (some centres not stated)
label: inactive
--
molecule: O=c1[nH]cc(F)c(=O)[nH]1
label: active
--
molecule: CN1[C@@H]2CC(OC(=O)[C@@H](CO)c3ccccc3)C[C@H]1[C@@H]1O[C@@H]12 (some centres not stated)
label: inactive

## Task I would be grateful if you could indicate the recorded call for [O-][Br+2]([O-])O .
## Result active

## Task I would be grateful if you could indicate the recorded call for S=P(N1CC1)(N1CC1)N1CC1 .
## Result active

====

experimental protocol: DSSTox (CPDBAS) Carcinogenic Potency Database Summary MultiCellCall Results
condition set: animal carcinogenicity bioassays, multi-cell call summary
Active and inactive are the calls of the source.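 The calls were made as follows: active = tumour findings in long-term animal cancer tests in more than one sex, species or organ; inactive = no tumour finding and more than one negative test.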
Result category, one only: active, inactive

Examples with answers:
compound: NN
label: active

compound: CCN(CC)C(=O)c1cccc(C)c1
label: inactive

compound: CCN(CC)C(=S)[S-].CCN(CC)C(=S)[S-].[Zn+2]
label: inactive

compound: CC1(C)S[C@@H]2[C@H](NC(=O)[C@H](N)c3ccccc3)C(=O)N2[C@H]1C(=O)O
label: inactive

compound: CC1SC(C)N(N=O)C(C)S1 (configuration not stated)
label: active

compound: C=C1C[C@]23C[C@@]1(O)CC[C@H]2[C@@]12C=C[C@H](O)[C@@](C)(C(=O)O1)[C@H]2[C@@H]3C(=O)O
label: inactive

compound: Nc1ccc(NC(=O)c2ccc(N)cc2)cc1
label: inactive

compound: CNC(=O)CSP(=S)(OC)OC
label: inactive

## Task I would be grateful if you could indicate the recorded call for Cc1c([N+](=O)[O-])c(C)c([N+](=O)[O-])c(C(C)(C)C)c1[N+](=O)[O-] .
## Result active

## Task I would be grateful if you could indicate the recorded call for O=[N+]([O-])c1ccc(NCCO)c(OCCO)c1 .
## Result inactive

## Task I would be grateful if you could indicate the recorded call for CNC(=O)O/N=C(\SC)C(=O)N(C)C .
## Result inactive

## Task I would be grateful if you could indicate the recorded call for COc1cc(/C=N/NC(=O)c2ccncc2)ccc1O .
## Result active

====

experimental protocol: DSSTox (CPDBAS) Carcinogenic Potency Database Summary MultiCellCall Results
condition set: animal carcinogenicity bioassays, multi-cell call summary
The source made the active and inactive calls.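 The calls were made as follows: active = tumour findings in long-term animal cancer tests in more than one sex, species or organ; inactive = no tumour finding and more than one negative test.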
Result category, one only: active, inactive

Examples with answers:
compound: CCCOC(=O)c1cc(O)c(O)c(O)c1
label: inactive
--
compound: CC[C@H]1OC(=O)C[C@@H](O)[C@H](C)[C@@H](O[C@@H]2O[C@H](C)[C@@H](O[C@H]3C[C@@](C)(O)[C@@H](O)[C@H](C)O3)[C@H](N(C)C)[C@H]2O)[C@@H](CC=O)C[C@@H](C)C(=O)/C=C/C(C)=C/C1CO[C@@H]1O[C@H](C)[C@@H](O)[C@@H](OC)[C@H]1OC (some centres undefined)
label: inactive
--
compound: Cc1cc(O)c2c(c1)C(=O)c1cc(O)cc(O)c1C2=O
label: inactive

In the following, a different compound is considered.
## Task I would be grateful if you could indicate the recorded call for OCc1ccco1 .
## Result active

====

experimental protocol: DSSTox (CPDBAS) Carcinogenic Potency Database Summary MultiCellCall Results
condition set: animal carcinogenicity bioassays, multi-cell call summary
Activity calls are given as the source filed them.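 Rule for the calls: active = tumour findings in long-term animal cancer tests in more than one sex, species or organ; inactive = no tumour finding and more than one negative test.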
Result category, one only: y = active, n = inactive

Examples with answers:
compound: C=CC(O)c1ccc2c(c1)OCO2 (configuration not stated)
label: y

compound: O=C(OOC(=O)c1ccccc1)c1ccccc1
label: n

## Task I would be grateful if you could indicate the recorded call for O=C(O)CC[N+](=O)[O-] .
## Result n

## Task I would be grateful if you could indicate the recorded call for O=NN1CC=CCC1 .
## Result y

====

experimental protocol: DSSTox (CPDBAS) Carcinogenic Potency Database Summary MultiCellCall Results
condition set: animal carcinogenicity bioassays, multi-cell call summary
Activity calls are given as the source filed them.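 How the source made its calls: active means tumour findings in long-term animal cancer tests in more than one sex, species or organ; inactive means no tumour finding and more than one negative test.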
value kind: outcome

compound: C=C/C1=C/[C@H](C)[C@](C)(OC(C)=O)C(=O)OCC2=CC[N+]3(C)CC[C@@H](OC1=O)C23[O-] (stereo partly drawn)
outcome: active; multisite active
//
compound: C/C=C(\C)C(=O)O[C@@H]1CCN2CC=C(COC(=O)C(O)(C(C)C)C(C)O)[C@H]12 (stereo partly drawn)
outcome: active; multisite active
//
compound: Cn1cc[nH]c1=S
outcome: active; multisex active
//
compound: Cc1ccccc1N=O
outcome: active; multisite active
//
compound: Cc1c(N(C)CS(=O)(=O)O)c(=O)n(-c2ccccc2)n1C
outcome: active; multisex active

## Task // lookup outcome for NC(=O)NNc1ccccc1
## Result active; multisex active

====

experimental protocol: DSSTox (CPDBAS) Carcinogenic Potency Database Summary MultiCellCall Results
condition set: animal carcinogenicity bioassays, multi-cell call summary
Activity calls are given as the source filed them.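 How the source made its calls: active means tumour findings in long-term animal cancer tests in more than one sex, species or organ; inactive means no tumour finding and more than one negative test.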
Result category, one only: Y = active, N = inactive

## Task I would be grateful if you could indicate the recorded call for CCCCNC(N)=O .
## Result N

## Task I would be grateful if you could indicate the recorded call for c1ccoc1 .
## Result Y

## Task I would be grateful if you could indicate the recorded call for CC(=O)OC/C=C(\C)CCC=C(C)C .
## Result N

## Task I would be grateful if you could indicate the recorded call for CN1C(C(=O)Nc2ccccn2)=C(O)c2sc(Cl)cc2S1(=O)=O .
## Result N

## Task I would be grateful if you could indicate the recorded call for Cc1ccc(Cl)cc1N .
## Result Y

## Task I would be grateful if you could indicate the recorded call for S=C(SSSSSSC(=S)N1CCCCC1)N1CCCCC1 .
## Result N

## Task I would be grateful if you could indicate the recorded call for COc1ccc([C@@H]2CC(=O)c3c(O)cc(O[C@@H]4O[C@H](CO[C@@H]5O[C@@H](C)[C@H](O)[C@@H](O)[C@H]5O)[C@@H](O)[C@H](O)[C@H]4O)cc3O2)cc1OC .
## Result N

## Task I would be grateful if you could indicate the recorded call for C=CCc1ccc(O)c(OC)c1 .
## Result N

## Task I would be grateful if you could indicate the recorded call for CNNCc1ccc(C(=O)NC(C)C)cc1 .
## Result Y

## Task I would be grateful if you could indicate the recorded call for COc1ccc([N+](=O)[O-])cc1N .
## Result Y

## Task I would be grateful if you could indicate the recorded call for NC(=O)NC1NC(=O)NC1=O (stereo unspecified) .
## Result N

Data origin, for the record: PubChem BioAssay AID1205
